- assayedTarget: CXCR4 V112A + L41A (human, UniProt P61073-1 1-352, L41A | V112A)
- Sequence (P61073 whole entry L41A/V112A): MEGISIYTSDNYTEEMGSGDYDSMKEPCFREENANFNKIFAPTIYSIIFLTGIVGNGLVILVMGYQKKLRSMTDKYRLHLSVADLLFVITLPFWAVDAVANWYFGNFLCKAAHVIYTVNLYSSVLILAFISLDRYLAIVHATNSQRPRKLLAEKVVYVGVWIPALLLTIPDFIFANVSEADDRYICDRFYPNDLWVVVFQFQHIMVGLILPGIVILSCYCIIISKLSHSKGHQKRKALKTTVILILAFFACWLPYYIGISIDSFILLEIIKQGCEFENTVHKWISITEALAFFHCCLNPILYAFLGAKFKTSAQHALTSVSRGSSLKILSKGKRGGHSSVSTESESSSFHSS
- runDescription: FACS
valueKind: IC50

Prompt: Find the measured IC50 of IVRWSKKVPCVS (also called EPI-X4 WSC02; source: synthetic peptide (Fmoc solid-phase synthesis, HPLC-purified)) [WSC02] and report it.
Response: 4.7 µM
